- System: Pseudomonas aeruginosa
- experimentalDetails: Antimicrobial activity against gram-negative Pseudomonas aeruginosa ATCC 27853 at 32 ug/ml after 18 hrs
- Assay type: functional
- assayContext: ATCC 27853, 18 h
For each of the molecules below, state its inhibition at 32 µg/mL.

response.value for COc1ccc(-c2nc3ccccc3n2-c2ccccc2)cc1O (field: inhibition at 32 µg/mL) = 1.32 to 7.73%

COc1ccc(-c2nc(-c3ccccc3)cn2-c2ccccc2)cc1 has a reported inhibition at 32 µg/mL of 2.98 to 16.6%

inhibition at 32 µg/mL for COc1ccc(-c2nc3ccccc3n2-c2ccc(Cl)cc2)cc1 is 1.34 to 9.75%

Documented inhibition at 32 µg/mL of COc1ccc(-c2nc3ccccc3n2-c2cccc(OC)c2)cc1 : 9.8 to 11.2%

Record summary for Cc1ccn2c(CN3CCOCC3)c(-c3ccccc3)nc2c1 : reported inhibition at 32 µg/mL = 10.6 to 15.2%

---

- Tested on: Candida albicans
- experimentalDetails: Antifungal activity against Candida albicans ATCC 90028 at 32 ug/ml after 24 hrs
- Type: functional
- assayContext: ATCC 90028, 24 h
Please respond with reported inhibition at 32 µg/mL for every item in the list.

Please fill in: inhibition at 32 µg/mL reported for COc1ccc(-c2nc3ccccc3n2-c2ccc(Cl)cc2)cc1OC = 7.63 to 8.23%

Record summary for c1ccc(-c2nc3ccccn3c2CN2CCCCC2)cc1 : reported inhibition at 32 µg/mL = 2.41 to 3.93%

The reported value for Cc1ccn2c(CN3CCOCC3)c(-c3ccc(F)cc3)nc2c1 in terms of inhibition at 32 µg/mL is 2.74 to 7.44%

Cited source for all entries: ChEMBL document CHEMBL4043142
